The reported measurements were obtained from the NIST ThermoML archive (doi:10.1021/acs.jced.7b00002).

test_context: 333.15 K; 97.6 kPa; Liquid; Capillary tube (Ostwald / Ubbelohde) method
Response field label: string, one of 1 (viscosity strictly below 0.6 mPa·s) or 0.

Q. Is 0.6 mPa·s strictly greater than the compound's reported viscosity? compound: CC(=O)N(C)C [N,N-dimethylethanamide]
A. 0

Q. Subsequent entry: CN(C)C=O [dimethylformamide]
A. 1

Q. Subsequent entry: CCCCCCCC[n+]1ccn(C)c1.[Cl-] [1-methyl-3-octylimidazolium chloride]
A. 0

Q. Subsequent entry: C[S+](C)[O-] [dimethyl sulfoxide]
A. 0

====

test_context: 338.15 K; 97.6 kPa; Liquid; Vibrating tube method
property_name: mass density (kg/m3)
Provide only the numeric value, understood in kg/m3.

Q. Give the measured mass density of c1ccncc1 .
A. 937.6

Q. Subsequent entry: C[S+](C)[O-] [dimethyl sulfoxide]
A. 1055.34

Q. Subsequent entry: CCCCCCCC[n+]1ccn(C)c1.[Cl-] [1-methyl-3-octylimidazolium chloride]
A. 986.38

Q. Subsequent entry: CN(C)C=O [dimethylformamide]
A. 905.6

Q. Subsequent entry: CC(=O)N(C)C [N,N-dimethylethanamide]
A. 899.53
